experimental.system: AgBzz1-D1
method: SPOT peptide array binding signal intensity (averaged, normalized) (arbitrary units (background-subtracted, floor 0; scale differs between SH3 domains)); higher = stronger binding of the SH3 domain to the peptide
quantity: SPOT peptide array binding signal intensity
Just the number.

RRASLFPRDPKRLRP = 87
RPPRPPPKPLHLRTE = 270
KMSRSPPRPPSLKII = 85.5
RSVKRPRRAPRPVVS = 54.5
AAHKTKPSIPPKKVE = 57.5

Continue with the next binder.
Kindly note the recorded SPOT peptide array binding signal intensity for TEVPIPRRPPPPQAA , which is 8

Reference source: the supplement of paper PMC4466140
